List of cynoPDGF-BB NIH-3T3 Proliferation IC50 values.
Target: T1, Cynomolgus monkey PDGF-BB (cynomolgus monkey, UniProt P01127 82-190 (human entry), limits assumed)
T1 chain: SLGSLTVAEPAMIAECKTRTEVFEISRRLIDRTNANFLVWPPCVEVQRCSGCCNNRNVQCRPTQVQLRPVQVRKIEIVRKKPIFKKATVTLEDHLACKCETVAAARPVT
Assay: cell-based or functional assay
Reply with just the number (in nM).

[
  {
    "BINDER": "CL-33706-IgG (antibody, V domains shown) VH: EVTLRESGPALVKPTQTLTLTCTFSGFSLSTYGMGVGWIRQPPGKALEWLANIWWDDDKYYNPSLKNRLTISKDTSKNQVVLTMTNMDPVDTATYYCARIETMGPKYSFDYWGQGTMVTVSS VL: EIVLTQSPGTLSLSPGERATLSCRASSGSIWYSFVSWYQQKPGQAPRLLIYADDQRASGIPDRFSGSGSGTDFTLTISRLEPEDFAVYYCQSYGINIDVVFGGGTKVEIK",
    "cynoPDGF-BB NIH-3T3 Proliferation IC50, nM": 0.019
  },
  {
    "BINDER": "CL-33683-IgG (antibody, V domains shown) VH: EVTLRESGPALVKPTQTLTLTCTFSGFSLSTYGMGVGWIRQPPGKALEWLANIWWDDDKYYNPSLKNRLTISKDTSKNQVVLTMTNMDPVDTATYYCARIETIGPKYSFDYWGQGTMVTVSS VL: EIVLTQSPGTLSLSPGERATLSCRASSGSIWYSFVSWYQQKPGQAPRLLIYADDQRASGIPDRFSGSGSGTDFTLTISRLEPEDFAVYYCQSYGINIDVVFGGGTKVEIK",
    "cynoPDGF-BB NIH-3T3 Proliferation IC50, nM": 0.028
  }
]

Would you kindly look at the next entry?
Task item: So what does the record say about cynoPDGF-BB NIH-3T3 Proliferation IC50 for CL-33805-IgG (antibody, V domains shown) VH: EVTLRESGPALVKPTQTLTLTCTFSGFSLSTYGMGVGWIRQPPGKALEWLANIWWDDDKYYNPSLKNRLTISKDTSKNQVVLTMTNMDPVDTATYYCARIESHWWSYAFDYWGQGTMVTVSS VL: EIVLTQSPGTLSLSPGERATLSCERSSGSNYDTYVSWYQQKPGQAPRLLIYADDLRASGIPDRFSGSGSGTDFTLTISRLEPEDFAVYYCQSYGIETDIVFGGGTKVEIK ?
Reply: 0.018
